target or system: P2Y11 receptor (Homo sapiens, UniProt Q96G91, DUP173-173)
Sequence (Q96G91 with tags, fused parts or gaps DUP173-173): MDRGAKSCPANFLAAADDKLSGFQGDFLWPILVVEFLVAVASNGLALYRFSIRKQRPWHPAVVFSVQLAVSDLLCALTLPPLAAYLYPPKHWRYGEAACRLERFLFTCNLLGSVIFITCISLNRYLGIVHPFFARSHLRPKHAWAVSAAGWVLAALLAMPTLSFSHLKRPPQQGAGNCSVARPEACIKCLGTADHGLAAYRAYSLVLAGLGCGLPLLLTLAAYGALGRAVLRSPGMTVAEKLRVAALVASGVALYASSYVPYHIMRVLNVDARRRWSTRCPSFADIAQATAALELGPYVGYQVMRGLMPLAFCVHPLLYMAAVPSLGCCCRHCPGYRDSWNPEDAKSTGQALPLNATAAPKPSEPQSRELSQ
assay explanation: Inositol trisphosphate (IP3) accumulation in 1321N1 astrocytoma cells transfected with the new receptor
details: P2Y11-transfected 1321N1 cells, 30 s; means±range of two independent experiments
reported property: EC50 (µM)
Lab book: enter the figure in µM, no units written.

Provide EC50 value for the following compound: CSc1nc(N)c2ncn([C@@H]3O[C@H](COP(=O)(O)OP(=O)(O)OP(=O)(O)O)[C@@H](O)[C@H]3O)c2n1 [2MeSATP, 2-methylthio-ATP]
118
